Molecular target: hGIIE N21W (Homo sapiens, UniProt Q9NZK7, N40W)
Construct: The gene encoding for hGIIE protein without signal peptide was amplified by PCR; made in house; host or cells: Pichia pastoris X33 (vector pGAPZαA)
Sequence (Q9NZK7 20-142 N40W): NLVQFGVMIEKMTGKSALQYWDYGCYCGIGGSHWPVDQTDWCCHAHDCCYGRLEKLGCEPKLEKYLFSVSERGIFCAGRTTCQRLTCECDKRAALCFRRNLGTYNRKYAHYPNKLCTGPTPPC
Assay: Inhibition of hGIIE mutant N21W, sPLA2 assay kit
Type: biochemical
Conditions: N21W enzyme 30 µM; mean ± s.d., n=2; read-out: IC50 against hGIIE N21W
Assignment: determine reported pIC50 for the given compounds.
One number for each entry, as −log10 of the molar value.

These solved cases illustrate the format of a correct answer.
# COMPOUND, pIC50
data = [
    ("Cc1c(C(=O)C(N)=O)c2c(OCC(=O)O)cccc2n1Cc1cccc2ccccc12 [Compound 8]", 5.90),
    ("Cc1c(C(=O)C(N)=O)c2c(OCC(=O)O)cccc2n1Cc1cccc(Br)c1 [Compound 14]", 5.71),
    ("CCc1c(CC(N)=O)c2cc(OCCCP(=O)(O)O)ccc2n1Cc1ccccc1 [LY311727]", 4.75),
]

Items follow; give pIC50 for each.
1. Cc1c(C(=O)C(N)=O)c2c(OCC(=O)O)cccc2n1Cc1ccccc1C(F)(F)F [Compound 24]
2. Cc1c(C(=O)C(N)=O)c2c(OCC(=O)O)cccc2n1Cc1ccccc1-c1ccccc1 [Me-Indoxam]

5.73
5.84

----------
Biological target: hGIIE N21G (Homo sapiens, UniProt Q9NZK7, N40G)
Construct: The gene encoding for hGIIE protein without signal peptide was amplified by PCR; made in house; host or cells: Pichia pastoris X33 (vector pGAPZαA)
Sequence (Q9NZK7 20-142 N40G): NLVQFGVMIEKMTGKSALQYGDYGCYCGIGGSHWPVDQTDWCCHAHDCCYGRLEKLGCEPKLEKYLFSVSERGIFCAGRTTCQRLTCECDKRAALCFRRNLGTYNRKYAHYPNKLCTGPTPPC
Experiment: Inhibition of hGIIE mutant N21G, sPLA2 assay kit
Type: biochemical
Conditions: N21G enzyme 32.86 µM; mean ± s.d., n=2; read-out: IC50 against hGIIE N21G
Assignment: determine reported IC50 for the given compounds.

These solved cases illustrate the format of a correct answer.
# COMPOUND, EXPERIMENTAL SYSTEM, DATA VALUE
measured = [
    ("Cc1c(C(=O)C(N)=O)c2c(OCC(=O)O)cccc2n1Cc1ccccc1-c1ccccc1 [Me-Indoxam]", "hGIIE N21G (Homo sapiens, UniProt Q9NZK7, N40G)", "1840 nM"),
    ("Cc1c(C(=O)C(N)=O)c2c(OCC(=O)O)cccc2n1Cc1ccccc1C(F)(F)F [Compound 24]", "hGIIE N21G (Homo sapiens, UniProt Q9NZK7, N40G)", "2390 nM"),
]

Items follow; give IC50 for each.
1. Cc1c(C(=O)C(N)=O)c2c(OCC(=O)O)cccc2n1Cc1cccc(Br)c1 [Compound 14]
2. CCc1c(CC(N)=O)c2cc(OCCCP(=O)(O)O)ccc2n1Cc1ccccc1 [LY311727]
3. Cc1c(C(=O)C(N)=O)c2c(OCC(=O)O)cccc2n1Cc1cccc2ccccc12 [Compound 8]

1: 1730 nM; 2: 5130 nM; 3: 630 nM

----------
Target: hGIIE G6N (Homo sapiens, UniProt Q9NZK7, G25N)
Construct: The gene encoding for hGIIE protein without signal peptide was amplified by PCR
Sequence (Q9NZK7 20-142 G25N): as the sequence (Q9NZK7 20-142 N40G) above, with G6N, G21N counted along it
Test: Inhibition of hGIIE mutant G6N, sPLA2 assay kit
Conditions: G6N enzyme 7.56 µM; mean ± s.d., n=2; read-out: IC50 against hGIIE G6N
READOUT TYPE: pIC50
Answers are plain numbers, as −log10 of the molar value.

These solved cases illustrate the format of a correct answer.
# SMILES RECORD, pIC50
data = [
    ("Cc1c(C(=O)C(N)=O)c2c(OCC(=O)O)cccc2n1Cc1cccc2ccccc12", 6.20),
    ("CCc1c(CC(N)=O)c2cc(OCCCP(=O)(O)O)ccc2n1Cc1ccccc1", 5.51),
    ("Cc1c(C(=O)C(N)=O)c2c(OCC(=O)O)cccc2n1Cc1cccc(Br)c1", 6.64),
    ("Cc1c(C(=O)C(N)=O)c2c(OCC(=O)O)cccc2n1Cc1ccccc1C(F)(F)F", 6.57),
]

Proceed to the following item.
Determine reported pIC50 for `Cc1c(C(=O)C(N)=O)c2c(OCC(=O)O)cccc2n1Cc1ccccc1-c1ccccc1` ; test system: hGIIE G6N (Homo sapiens, UniProt Q9NZK7, G25N).
6.85

----------
Target: hGIIE G6H (Homo sapiens, UniProt Q9NZK7, G25H)
Construct: The gene encoding for hGIIE protein without signal peptide was amplified by PCR
Sequence (Q9NZK7 20-142 G25H): as the sequence (Q9NZK7 20-142 N40G) above, with G6H, G21N counted along it
Assay: Inhibition of hGIIE mutant G6H, sPLA2 assay kit
Details: G6H enzyme 10.91 µM; mean ± s.d., n=2; read-out: IC50 against hGIIE G6H
pIC50: −log10 of the molar value.
Rule: pIC50 of 5 or more gives 1; anything lower gives -1.

# SMILES RECORD, ASSIGNED CLASS
records = [
    ("CCc1c(CC(N)=O)c2cc(OCCCP(=O)(O)O)ccc2n1Cc1ccccc1", -1),
    ("Cc1c(C(=O)C(N)=O)c2c(OCC(=O)O)cccc2n1Cc1cccc(Br)c1", 1),
    ("Cc1c(C(=O)C(N)=O)c2c(OCC(=O)O)cccc2n1Cc1ccccc1-c1ccccc1", 1),
]

Form field: pIC50 at least 5? Entry: `Cc1c(C(=O)C(N)=O)c2c(OCC(=O)O)cccc2n1Cc1cccc2ccccc12`
1

Form field: pIC50 at least 5? Entry: `Cc1c(C(=O)C(N)=O)c2c(OCC(=O)O)cccc2n1Cc1ccccc1C(F)(F)F`
1

----------
Target: hGIIE F97L (Homo sapiens, UniProt Q9NZK7, F116L)
Construct: The gene encoding for hGIIE protein without signal peptide was amplified by PCR
Sequence (Q9NZK7 20-142 F116L): as the sequence (Q9NZK7 20-142 N40W) above, with W21N, F97L counted along it
Experiment: Inhibition of hGIIE mutant F97L, sPLA2 assay kit
Conditions: F97L enzyme 10.48 µM; mean ± s.d., n=2; read-out: IC50 against hGIIE F97L
READOUT TYPE: pIC50
One number for each entry, as −log10 of the molar value.

These solved cases illustrate the format of a correct answer.
# SMILES RECORD, pIC50
measured = [
    ("Cc1c(C(=O)C(N)=O)c2c(OCC(=O)O)cccc2n1Cc1cccc2ccccc12", 6.32),
    ("Cc1c(C(=O)C(N)=O)c2c(OCC(=O)O)cccc2n1Cc1ccccc1-c1ccccc1", 6.59),
]

Items follow; give pIC50 for each.
1. CCc1c(CC(N)=O)c2cc(OCCCP(=O)(O)O)ccc2n1Cc1ccccc1
2. Cc1c(C(=O)C(N)=O)c2c(OCC(=O)O)cccc2n1Cc1cccc(Br)c1
3. Cc1c(C(=O)C(N)=O)c2c(OCC(=O)O)cccc2n1Cc1ccccc1C(F)(F)F

1. 5.95
2. 6.55
3. 6.60

----------
Target: hGIIE F5L_F97L (Homo sapiens, UniProt Q9NZK7, F116L/F24L)
Construct: The gene encoding for hGIIE protein without signal peptide was amplified by PCR
Sequence (Q9NZK7 20-142 F24L/F116L): as the sequence (Q9NZK7 20-142 N40G) above, with F5L, G21N, F97L counted along it
Assay: Inhibition of hGIIE double mutant F5L_F97L, sPLA2 assay kit
Settings: F5L_F97L enzyme 6.73 µM; mean ± s.d., n=2; read-out: IC50 against hGIIE F5L_F97L
Assignment: determine reported pIC50 for the given molecules.
Answers are plain numbers, as −log10 of the molar value.

These solved cases illustrate the format of a correct answer.
# MOLECULE, pIC50
measured = [
    ("CCc1c(CC(N)=O)c2cc(OCCCP(=O)(O)O)ccc2n1Cc1ccccc1 [LY311727]", 6.00),
    ("Cc1c(C(=O)C(N)=O)c2c(OCC(=O)O)cccc2n1Cc1cccc(Br)c1 [Compound 14]", 6.52),
    ("Cc1c(C(=O)C(N)=O)c2c(OCC(=O)O)cccc2n1Cc1cccc2ccccc12 [Compound 8]", 6.60),
    ("Cc1c(C(=O)C(N)=O)c2c(OCC(=O)O)cccc2n1Cc1ccccc1-c1ccccc1 [Me-Indoxam]", 6.62),
]

Proceed to the following item.
Output measured pIC50 for this item: Cc1c(C(=O)C(N)=O)c2c(OCC(=O)O)cccc2n1Cc1ccccc1C(F)(F)F [Compound 24]
6.85

----------
Assignment: determine reported pIC50 for the given compounds.
Target: hGIIE N21M (Homo sapiens, UniProt Q9NZK7, N40M)
Construct: The gene encoding for hGIIE protein without signal peptide was amplified by PCR
Sequence (Q9NZK7 20-142 N40M): as the sequence (Q9NZK7 20-142 N40G) above, with G21M counted along it
Assay: Inhibition of hGIIE mutant N21M, sPLA2 assay kit
Settings: N21M enzyme 22.14 µM; mean ± s.d., n=2; read-out: IC50 against hGIIE N21M
Numbers only, as −log10 of the molar value.

These solved cases illustrate the format of a correct answer.
# COMPOUND, EXPERIMENTAL SYSTEM, DATA VALUE
records = [
    ("Cc1c(C(=O)C(N)=O)c2c(OCC(=O)O)cccc2n1Cc1cccc2ccccc12 [Compound 8]", "hGIIE N21M (Homo sapiens, UniProt Q9NZK7, N40M)", 5.98),
    ("Cc1c(C(=O)C(N)=O)c2c(OCC(=O)O)cccc2n1Cc1ccccc1C(F)(F)F [Compound 24]", "hGIIE N21M (Homo sapiens, UniProt Q9NZK7, N40M)", 6.08),
    ("Cc1c(C(=O)C(N)=O)c2c(OCC(=O)O)cccc2n1Cc1cccc(Br)c1 [Compound 14]", "hGIIE N21M (Homo sapiens, UniProt Q9NZK7, N40M)", 6.08),
    ("CCc1c(CC(N)=O)c2cc(OCCCP(=O)(O)O)ccc2n1Cc1ccccc1 [LY311727]", "hGIIE N21M (Homo sapiens, UniProt Q9NZK7, N40M)", 5.22),
]

Proceed to the following item.
Output measured pIC50 for this item: Cc1c(C(=O)C(N)=O)c2c(OCC(=O)O)cccc2n1Cc1ccccc1-c1ccccc1 [Me-Indoxam]
6.06
